- measured target: C-X-C chemokine receptor type 2 (Homo sapiens)
- Sequence (P25025 whole entry): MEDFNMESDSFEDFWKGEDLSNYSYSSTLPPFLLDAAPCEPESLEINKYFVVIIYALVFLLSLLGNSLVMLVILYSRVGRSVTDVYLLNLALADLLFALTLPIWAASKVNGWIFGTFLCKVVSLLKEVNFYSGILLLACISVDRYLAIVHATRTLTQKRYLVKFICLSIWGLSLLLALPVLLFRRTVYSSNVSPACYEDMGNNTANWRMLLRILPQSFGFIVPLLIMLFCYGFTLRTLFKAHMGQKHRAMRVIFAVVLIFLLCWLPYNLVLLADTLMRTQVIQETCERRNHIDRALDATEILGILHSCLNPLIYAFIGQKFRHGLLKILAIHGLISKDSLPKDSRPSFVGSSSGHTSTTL
- method notes: Antagonist activity against human recombinant CXCR2 receptor expressed in CHO cell membranes by SPA based [35S]GTPgammaS binding assay
- Format: functional
pIC50: −log10 of the molar value.
attribute measured: pIC50

Some solved entries appear below for comparison.
compound=CC(C)(Sc1nc(O)c(C#N)c(C2CC2)n1)c1ccccc1 attribute_measured=pIC50 number=5.19
compound=Cc1nc(SCc2cccc(F)c2F)nc(O)c1C#N attribute_measured=pIC50 number=5.37

[a] N#Cc1c(O)nc(SCc2cccc(F)c2F)nc1C1CCC1
[b] COc1ccc(-c2nc(SCc3cccc(F)c3F)nc(O)c2C#N)cc1
[c] CCOC(=O)[C@H]1C[C@@H]1c1nc(SCc2cccc(F)c2F)nc(O)c1C#N (stereo in doubt; form 1)
Sort entries by pIC50 from minimum to maximum value. Give the labels in the order specified.
a, b, c
(a: 5.77, b: 6.15, c: 6.49)

----------
- measured target: C-X-C chemokine receptor type 2 (Homo sapiens)
- method notes: Antagonist activity against human recombinant CXCR2 receptor expressed in CHO cell membranes by SPA based [35S]GTPgammaS binding assay
- Type: functional
pIC50: −log10 of the molar value.
attribute measured: pIC50

Some solved entries appear below for comparison.
structure=CC(C)(CO)Nc1nc(SCc2cccc(F)c2F)nc(-c2ccccc2)c1C#N measured_target="C-X-C chemokine receptor type 2 (Homo sapiens)" attribute_measured=pIC50 result="< 4.52"
structure=N#Cc1c(O)nc(SCc2c(Cl)cccc2Cl)nc1-c1ccccc1 measured_target="C-X-C chemokine receptor type 2 (Homo sapiens)" attribute_measured=pIC50 result="< 4.52"

# input for lookup
pIC50 for `CS(=O)(=O)Nc1nc(SCc2cccc(F)c2F)nc(-c2ccccc2)c1C#N` ?
< 4.52
